Origin of values: patent US20040044006A1

System: pneumococci with ciprofloxacin MICs ≧8 μg/ml
Test: Quinolone agar dilution MICs of 28 ciprofloxacin resistant pneumococcal strains, correlated with QRDR mutations
Type: cell-based, Streptococcus pneumoniae
Settings: Streptococcus pneumoniae, strain 3; ParC D83-N, ParE I460-V, GyrA S83-F, GyrB None
Procedure: Additionally these strains were tested for mutations in parC, gyrA, parE, and gyrB (Pan, et al. Antimicrob. Agents Chemother. 40:2321-2326, 1996) and for efflux mechanism (Brenwald, et ail., Antimicrob. Agents Chemother. 42:2032-2035, 1998). Gemifloxacin susceptibility powder was obtained from SmithKline Beecham Laboratories, Harlow, UK. […]
Listed here are molecules together with their documented MIC.

# molecule, MIC / µg/mL
records = [
    ("N[C@@H]1[C@H]2CN(c3nc4c(cc3F)c(=O)c(C(=O)O)cn4-c3ccc(F)cc3F)C[C@@H]12", 0.25),
    ("C[C@@H]1CN(c2c(F)c(N)c3c(=O)c(C(=O)O)cn(C4CC4)c3c2F)C[C@H](C)N1", 1),
    ("Cc1c(F)c(N2CCNC(C)C2)cc2c1c(=O)c(C(=O)O)cn2C1CC1 (stereo not shown)", 0.5),
    ("CO/N=C1\\CN(c2nc3c(cc2F)c(=O)c(C(=O)O)cn3C2CC2)CC1CN (racemic)", 0.06),
]
